# Test system: DLD-1
# EXPERIMENT: NCI tumour cell line growth inhibition, 48 h
Active and inactive are the calls of the source. No stated cut-off is given here; in the data, active = GI50 up to about 1.1 µM and inactive = higher.
// classify into active, inactive

Problem: # outcome recorded in this test, key = O=C(/C=C/c1cc(Cl)cc(Cl)c1O)c1cccc(O)c1
Solution: inactive

Problem: # outcome recorded in this test, key = O=C1c2ccccc2C(=O)c2nc(-c3ccccc3)c(-c3ccccc3)nc21
Solution: inactive

Problem: # outcome recorded in this test, key = O=C(COc1ccc2c(=O)cc(-c3ccc(Cl)cc3)oc2c1)N1CCN(c2ccccc2)CC1
Solution: inactive

Problem: # outcome recorded in this test, key = CCOc1ccc(N2C(=O)/C(=C/c3ccc(N(CCC#N)CCC#N)cc3)N=C2c2cc([N+](=O)[O-])ccc2Cl)cc1
Solution: inactive

Problem: # outcome recorded in this test, key = CC1(Br)CC2OC3(Br)C=CC(C)(O)C2(CC1=O)C3(C)C (stereo unspecified)
Solution: inactive

Problem: # outcome recorded in this test, key = CN(C)C(=S)Nc1nnc(Nc2ccccc2)s1
Solution: inactive

Problem: # outcome recorded in this test, key = CCN(CC)CCNc1ccc2nnn3c4ccc(OC)cc4c(=O)c1c23
Solution: inactive

Problem: # outcome recorded in this test, key = CC(C)C(=O)Nc1nc2c(ncn2C2OC(CO)C(O)C2O)c(=O)[nH]1 (stereo unspecified)
Solution: inactive

Problem: # outcome recorded in this test, key = COc1cc2c(c(OC)c1OC)-c1ccc(SC)c(=O)cc1[C@@H](NC(=O)c1cccc([N+](=O)[O-])c1)CC2
Solution: active

Problem: # outcome recorded in this test, key = Cc1ccc(C(=O)C(C2=Nc3nnc(N)n3C2=O)C2=Nc3nnc(N)n3C2=O)cc1
Solution: inactive

---

# System: T47D
# EXPERIMENT: NCI tumour cell line growth inhibition, 48 h
The source made the active and inactive calls. Rule as the data show it: active = GI50 up to about 1.1 µM and inactive = higher.
// classify into active, inactive

As a guide, the following entries are already answered.
{"COMPOUND": "CCOC(=O)c1ccc(Nc2cnc3cc(C(F)(F)F)ccc3n2)cc1", "ASSIGNED_CLASS": "inactive"}
{"COMPOUND": "CCCC(CCC(=O)O)(CCC(=O)O)[N+](=O)[O-]", "ASSIGNED_CLASS": "inactive"}
{"COMPOUND": "Cc1ccc(S(=O)(=O)N(CC(O)COc2ccccc2)c2c(F)c(F)cc(F)c2F)cc1 (centres undefined)", "ASSIGNED_CLASS": "inactive"}

Problem: # outcome recorded in this test, key = C=C(C)[C@@]1(OC(=O)c2cc([N+](=O)[O-])cc([N+](=O)[O-])c2)C[C@@H]2CCCC[C@@H]21
Solution: inactive

Problem: # outcome recorded in this test, key = ClCCN1CCOC1=C1C=CC=C1
Solution: inactive

---

# Test system: U-251
# EXPERIMENT: NCI tumour cell line growth inhibition, 48 h
Active and inactive are the calls of the source. No stated cut-off is given here; in the data, active = GI50 up to about 1.1 µM and inactive = higher.
MEASUREMENT_NAME: GI50

{"COMPOUND_STRUCTURE": "O=C(/C=C/c1ccc(Cl)c(Cl)c1)CCN1CCN(CCC(=O)/C=C/c2ccc(Cl)c(Cl)c2)CC1", "MEASURED_VALUE": "13.9 µM (inactive)"}
{"COMPOUND_STRUCTURE": "c1ccc([P+](CCNCCNCC[P+](c2ccccc2)(c2ccccc2)c2ccccc2)(c2ccccc2)c2ccccc2)cc1", "MEASURED_VALUE": "> 100 µM (inactive)"}
{"COMPOUND_STRUCTURE": "CCOC(=O)C[n+]1ccc2c([nH]c3cc(OC)ccc32)c1C", "MEASURED_VALUE": "> 77.4 µM (inactive)"}

Problem: Identify measured GI50 associated with O=C1N[C@@H](O)[C@@H]2ON=C(c3ccccc3)[C@H]12
Solution: > 100 µM (inactive)

Problem: Identify measured GI50 associated with Fc1cc(-c2cc(-c3ccc4c(c3)OCO4)n[nH]2)c(Cl)cc1Cl
Solution: 1.91 µM (inactive)

---

# System: LOX IMVI
# EXPERIMENT: NCI tumour cell line growth inhibition, 48 h
Calls of active or inactive are those of the source. Cut-off read from the data, not from the text of the source: active = GI50 up to about 1.1 µM and inactive = higher.
MEASUREMENT_NAME: GI50

Problem: Provide the reported GI50 (system: LOX IMVI) for O=C(O)/C(Cc1c[nH]nn1)=N\O
Solution: > 100 µM (inactive)

Problem: Provide the reported GI50 (system: LOX IMVI) for N#Cc1ccc(/C=[N+](/C=c2ccc(=C=[N-])cc2)N(CCO)C2=NCCN2)cc1
Solution: > 100 µM (inactive)

Problem: Provide the reported GI50 (system: LOX IMVI) for Clc1cccc(Cl)c1/C=N/C12CC3CC(CC(C3)C1)C2
Solution: > 10 µM (inactive)

Problem: Provide the reported GI50 (system: LOX IMVI) for N#Cc1cc2c(n(C3OC(CO)C(O)C(O)C3O)c1=S)CCCCC2 (configuration not stated)
Solution: > 100 µM (inactive)

Problem: Provide the reported GI50 (system: LOX IMVI) for Nc1ccccc1OCc1cc(=O)c(OCc2ccccc2)co1
Solution: 27.7 µM (inactive)

---

GI50 overview
# System: NCI-H23
# EXPERIMENT: NCI tumour cell line growth inhibition, 48 h
Activity calls are given as the source filed them. Rule as the data show it: active = GI50 up to about 1.1 µM and inactive = higher.

Below are worked cases with known answers.
{"COMPOUND": "CN(C)c1ccc(/C=C(\\NC(=O)c2ccccc2)C2=NC(CCC(=O)O)C(=O)O2)cc1 (stereo not drawn)", "MEASURED_VALUE": "> 50 µM (inactive)"}
{"COMPOUND": "O=c1[nH]c(C23CC4CC(CC(C4)C2)C3)cc2c1c(=O)oc1ccccc12", "MEASURED_VALUE": "9.57 µM (inactive)"}
{"COMPOUND": "CNc1ncccc1Nc1cc(=O)n2c3cccnc3n(C)c2c1", "MEASURED_VALUE": "74.6 µM (inactive)"}
{"COMPOUND": "N#C/C(=C/c1cccc2ccccc12)C(=O)c1ccccc1", "MEASURED_VALUE": "17.8 µM (inactive)"}
{"COMPOUND": "O=C(Oc1cccc(Cl)c1)c1cc2cc(CCl)ccc2oc1=O", "MEASURED_VALUE": "59 µM (inactive)"}
{"COMPOUND": "O=C(/C=C/c1cc(Cl)cc(Cl)c1O)c1cccc(O)c1", "MEASURED_VALUE": "52 µM (inactive)"}
{"COMPOUND": "C=C(Cl)C(Cl)(CBr)CCC(Br)C(C)(C)Br (stereo not drawn)", "MEASURED_VALUE": "14.2 µM (inactive)"}

Here's the next entry for you.
Problem: Identify measured GI50 associated with COc1ccc2c(c1)C(=O)c1ccccc1C2
Solution: 96.4 µM (inactive)

---

GI50 overview
# System: SN12C
# EXPERIMENT: NCI tumour cell line growth inhibition, 48 h
Calls of active or inactive are those of the source. No stated cut-off is given here; in the data, active = GI50 up to about 1.1 µM and inactive = higher.

Below are worked cases with known answers.
{"COMPOUND": "CCOC(=O)C1=C(c2ccccc2)NC(c2ccccc2)=C(C(=O)OCC)c2c1c(=O)cc[nH]c2=O", "GI50": "> 100 µM (inactive)"}
{"COMPOUND": "COc1ccc(C2=C(Cl)C(=O)N(c3ccc(OC)cc3OC)C(=O)C2(Cl)Cl)cc1", "GI50": "< 0.01 µM (active)"}
{"COMPOUND": "O=C(Oc1cccc(Cl)c1)c1cc2cc(CCl)ccc2oc1=O", "GI50": "48.9 µM (inactive)"}

Problem: Provide the reported GI50 (system: SN12C) for CC(=O)C1(O)CCC2(O)C3(O)CC=C4CC(O)CCC4(C)C3CC(OC(=O)c3ccc(O)cc3)C12C (centres undefined)
Solution: > 100 µM (inactive)

Problem: Provide the reported GI50 (system: SN12C) for CCOc1cc(C2CC(c3ccc(NS(=O)(=O)c4cc([N+](=O)[O-])ccc4C)cc3)=NN2C(=O)c2ccccc2)ccc1O (centres undefined)
Solution: 22.3 µM (inactive)

Problem: Provide the reported GI50 (system: SN12C) for COc1ccccc1NC(=S)N/N=C(/c1ccccc1)c1ccccn1
Solution: 0.685 µM (active)

Problem: Provide the reported GI50 (system: SN12C) for O=CC12CCCN1CCC2
Solution: > 100 µM (inactive)

Problem: Provide the reported GI50 (system: SN12C) for CN(C)C(=S)Nc1nnc(Nc2ccccc2)s1
Solution: > 100 µM (inactive)

Problem: Provide the reported GI50 (system: SN12C) for CN(C)c1ccc(/C=C(\NC(=O)c2ccccc2)C2=NC(CCC(=O)O)C(=O)O2)cc1 (centres undefined)
Solution: > 50 µM (inactive)

---

# System: EKVX
# EXPERIMENT: NCI tumour cell line growth inhibition, 48 h
The source made the active and inactive calls. No stated cut-off is given here; in the data, active = GI50 up to about 1.1 µM and inactive = higher.
// classify into yes (1) (active), no (0) (inactive)

{"COMPOUND": "O=c1nc2ccc3sc4ccccc4c(=O)c3n2c(=O)[nH]1", "TARGET_OF_ASSAY": "EKVX", "ASSIGNED_CLASS": "no (0)"}
{"COMPOUND": "CSCSCC(N)CO.Cc1[nH]c(=O)[nH]c(=O)c1/C=C/C(=O)O", "TARGET_OF_ASSAY": "EKVX", "ASSIGNED_CLASS": "no (0)"}
{"COMPOUND": "O=C(O)C1CCC(=O)N1S(=O)(=O)c1ccccc1 (stereo not given)", "TARGET_OF_ASSAY": "EKVX", "ASSIGNED_CLASS": "no (0)"}

Problem: # outcome recorded in this test, key = OC(c1ccccc1)c1c(-c2ccccc2)oc(-c2ccccc2)c1C(O)c1ccccc1 (stereo not given)
Solution: no (0)

Problem: # outcome recorded in this test, key = Clc1cccc(-c2nnc(-c3nn(-c4ccccc4)c4nc5ccccc5nc34)o2)c1
Solution: no (0)

Problem: # outcome recorded in this test, key = C=C1C(=O)OC2CC3(CO3)C3C(O)C(O)CC3(C)CC12 (stereo not given)
Solution: no (0)
